system: Plasmodium yoelii; experiment: Antimalarial activity against chloroquine-resistant Plasmodium yoelii N-67 infected Swiss mouse assessed as suppression of parasitemia at 100 mg/kg/day, po qd for 4 days measured on day 6; format: functional
measured attribute: inhibition in vivo at 100 mg/kg/day

Below are worked cases with known answers.
| compound | inhibition in vivo at 100 mg/kg/day |
| --- | --- |
| CC1=CC(/C=C/C(=O)c2cccs2)=CC(=C\NCCNc2ccnc3cc(Cl)ccc23)/C1=O | 82.3% |
| CC1=CC(/C=C/C(=O)c2ccc(Br)cc2)=CC(=C\NCCNc2ccnc3cc(Cl)ccc23)/C1=O | 80.6% |
| CC1=CC(/C=C/C(=O)c2ccc(C)cc2)=CC(=C\NCCNc2ccnc3cc(Cl)ccc23)/C1=O | 88.7% |

The compound listed as CC(C)(C)C1=CC(/C=C/C(=O)c2ccc(F)cc2)=CC(=C\NCCNc2ccnc3cc(Cl)ccc23)/C1=O has a reported inhibition in vivo at 100 mg/kg/day of 97%

The compound listed as CC1=CC(/C=C/C(=O)c2ccc(F)cc2)=CC(=C\NCCNc2ccnc3cc(Cl)ccc23)/C1=O has a reported inhibition in vivo at 100 mg/kg/day of 83.5%

The compound listed as CCC(C)C1=CC(/C=C/C(=O)c2ccco2)=CC(=C\NCCNc2ccnc3cc(Cl)ccc23)/C1=O (stereo not given) has a reported inhibition in vivo at 100 mg/kg/day of 85.8%

----------
test system: Plasmodium yoelii; test: Antimalarial activity against chloroquine-resistant Plasmodium yoelii N-67 infected Swiss mouse assessed as suppression of parasitemia at 100 mg/kg/day, po qd for 4 days measured on day 4; format: functional; conditions: N-67, 96 h
measured attribute: inhibition in vivo at 100 mg/kg/day

The molecule listed as CCC(C)C1=CC(/C=C/C(=O)c2ccco2)=CC(=C\NCCNc2ccnc3cc(Cl)ccc23)/C1=O (centres undefined) has a reported inhibition in vivo at 100 mg/kg/day of 99.5%

The molecule listed as CC(C)(C)C1=CC(/C=C/C(=O)c2ccc(Br)cc2)=CC(=C\NCCNc2ccnc3cc(Cl)ccc23)/C1=O has a reported inhibition in vivo at 100 mg/kg/day of 99.9%

The molecule listed as COc1cc(C(=O)/C=C/C2=CC(=C\NCCNc3ccnc4cc(Cl)ccc34)/C(=O)C(C)=C2)cc(OC)c1OC has a reported inhibition in vivo at 100 mg/kg/day of 99.8%

The molecule listed as CC1=CC(/C=C/C(=O)c2ccc(C)cc2)=CC(=C\NCCNc2ccnc3cc(Cl)ccc23)/C1=O has a reported inhibition in vivo at 100 mg/kg/day of 99.8%

----------
assay: Selectivity index, ratio of CC50 for monkey Vero cells to IC50 for chloroquine-sensitive ring stage Plasmodium falciparum 3D7; format: functional
measured attribute: Ratio CC50/IC50
API note: the answer field is a bare number with no unit suffix.

| molecule | Ratio CC50/IC50 |
| --- | --- |
| CC1=CC(/C=C/C(=O)c2cccs2)=CC(=C\NCCNc2ccnc3cc(Cl)ccc23)/C1=O | 1414.59 |
| CC1=CC(/C=C/C(=O)c2ccc(F)cc2)=CC(=C\Nc2ccc(Nc3ccnc4cc(Cl)ccc34)cc2)/C1=O | 407.52 |
| CC1=CC(/C=C/C(=O)c2ccc(Br)cc2)=CC(=C\NCCNc2ccnc3cc(Cl)ccc23)/C1=O | 1114.59 |

The compound listed as CC1=CC(/C=C/C(=O)c2ccc(Cl)cc2)=CC(=C\NCCNc2ccnc3cc(Cl)ccc23)/C1=O has a reported Ratio CC50/IC50 of 3755.43

The compound listed as CC(C)(C)C1=CC(/C=C/C(=O)c2ccc(F)cc2)=CC(=C\NCCNc2ccnc3cc(Cl)ccc23)/C1=O has a reported Ratio CC50/IC50 of 1499.3

The compound listed as CC(C)(C)C1=CC(/C=C/C(=O)c2ccc(Cl)cc2)=CC(=C\Nc2ccc(Nc3ccnc4cc(Cl)ccc34)cc2)/C1=O has a reported Ratio CC50/IC50 of 196.7
